Tested on: mice
Assay: Oral toxicity in mice (LDO, LD50)
Assay type: in vivo
Details: gummy julep (No. 1 and 13 in Tween), 2 weeks observation
EXPERIMENTAL_ENDPOINT: LDO (maximum dose which did not lead to any mortality)

These solved cases illustrate the format of a correct answer.
COMPOUND	VAL
CCC1(CC)Oc2ccc(NC3OC(=O)c4ccccc43)cc2O1 (stereo not drawn) [Product 2]	~ 1500 mg/kg
O=C1OC(Nc2ccc3c(c2)OC2(CCCCC2)O3)c2ccccc21 (stereo not drawn) [Product 3]	1000 to 2000 mg/kg

Note: attention shifts to another entry.
get_value(item= CC(=O)OCC1COc2cc(NC3OC(=O)c4ccccc43)ccc2O1 (stereo not drawn) [Product 20] , readout=LDO (maximum dose which did not lead to any mortality)) returns > 2000 mg/kg
